- tested_target: T1, hIL-11R (Homo sapiens, UniProt Q14626)
- T1 sequence (Q14626 23-422): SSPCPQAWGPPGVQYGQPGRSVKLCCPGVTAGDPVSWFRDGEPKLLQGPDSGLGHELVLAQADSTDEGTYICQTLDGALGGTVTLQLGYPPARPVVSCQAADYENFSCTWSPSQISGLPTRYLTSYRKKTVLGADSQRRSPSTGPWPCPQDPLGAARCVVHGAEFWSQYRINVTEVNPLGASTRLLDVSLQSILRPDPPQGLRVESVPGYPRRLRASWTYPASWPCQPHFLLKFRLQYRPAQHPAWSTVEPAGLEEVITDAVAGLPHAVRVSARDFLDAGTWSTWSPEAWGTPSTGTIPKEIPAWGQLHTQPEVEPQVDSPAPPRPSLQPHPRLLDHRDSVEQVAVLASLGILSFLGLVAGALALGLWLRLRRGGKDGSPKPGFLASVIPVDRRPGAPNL
- experimental_details: Alternate biolayer interferometry assay (AHC biosensors) ranking mAbs 16-32 against mAb5
- Format: binding
- assay_context: AHC biosensors
metric_name: ka (M⁻¹ s⁻¹)
Numeric answer only, unit M⁻¹ s⁻¹ assumed.

[in] Look at this molecule and give its reported ka. mAb31: anti-IL-11Rα antibody, human IgG4 (S228P), kappa; VH SEQ ID NO: 253, VL SEQ ID NO: 254 (antibody, V domains shown, IgG4 S228P kappa constant regions; mAb31 VH Chain; mAb31 VL Chain) VH: EVQLLESGGGLVQPGGSLRLSCAASGFTFSVYSMTWVRQAPGKGLEWVSSIVPYGDLTQYADSVKGRFTISRDNSKNTLYLQMNSLRAEDTAVYYCAKGPGWGSFDLWGRGTLVTVSS VL: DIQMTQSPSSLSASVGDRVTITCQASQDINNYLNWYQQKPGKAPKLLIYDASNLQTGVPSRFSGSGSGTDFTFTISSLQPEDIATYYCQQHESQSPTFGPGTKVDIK
[out] 690000

Further cases:
[in] Look at this molecule and give its reported ka. mAb5: anti-IL-11Rα antibody, human IgG4 (S228P), kappa; VH SEQ ID NO: 201, VL SEQ ID NO: 202 (antibody, V domains shown, IgG4 S228P kappa constant regions; mAb5 VH Chain; mAb5 VL Chain) VH: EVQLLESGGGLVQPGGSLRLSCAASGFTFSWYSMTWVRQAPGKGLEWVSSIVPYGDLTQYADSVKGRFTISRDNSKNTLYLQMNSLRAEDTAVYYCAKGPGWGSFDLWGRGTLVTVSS VL: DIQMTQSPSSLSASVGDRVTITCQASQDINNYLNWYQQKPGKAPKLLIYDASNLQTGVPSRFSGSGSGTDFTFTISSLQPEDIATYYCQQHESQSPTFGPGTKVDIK
[out] 490000

[in] Look at this molecule and give its reported ka. mAb21: anti-IL-11Rα antibody, human IgG4 (S228P), kappa; VH SEQ ID NO: 233, VL SEQ ID NO: 234 (antibody, V domains shown, IgG4 S228P kappa constant regions; mAb21 VH Chain; mAb21 VL Chain) VH: EVQLLESGGGLVQPGGSLRLSCAASGFTFSHYSMTWVRQAPGKGLEWVSSIVPYGDLTQYADSVKGRFTISRDNSKNTLYLQMNSLRAEDTAVYYCAKGPGWGSFDLWGRGTLVTVSS VL: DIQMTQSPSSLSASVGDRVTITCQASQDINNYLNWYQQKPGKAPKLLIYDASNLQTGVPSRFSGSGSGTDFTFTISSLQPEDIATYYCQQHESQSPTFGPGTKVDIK
[out] 750000
